- Tested on: 362531-283-R-J2-PDC complex spheroid viability
- test: Anticancer human tumor 362531-283-R-J2-PDC patient-derived colon adenocarcinoma cell line growth inhibition [RAS]
- condition notes: second compound 0.03 µM; first compound 0.01 µM; stronger effect = lower value

compound	viability, T/C [%]
Nc1ccn(C2OC(CO)C(O)C2(F)F)c(=O)n1 (centres undefined) + CCn1c(-c2cc(N3CCN(C)CC3)cnc2C(C)OC)c2c3cc(ccc31)-c1csc(n1)CC(NC(=O)C1CC1C)C(=O)N1CCCC(N1)C(=O)OCC(C)(C)C2	86.8
CCN1CCN(Cc2ccc(Nc3ncc(F)c(-c4cc(F)c5nc(C)n(C(C)C)c5c4)n3)nc2)CC1 + CCn1c(-c2cc(N3CCN(C)CC3)cnc2C(C)OC)c2c3cc(ccc31)-c1csc(n1)CC(NC(=O)C1CC1C)C(=O)N1CCCC(N1)C(=O)OCC(C)(C)C2	96.8
CCN1CCN(Cc2ccc(Nc3ncc(F)c(-c4cc(F)c5nc(C)n(C(C)C)c5c4)n3)nc2)CC1 + CCn1c(-c2cccnc2C(C)OC)c2c3cc(ccc31)N1CCOC(CC(NC(=O)C(C(C)C)N(C)C(=O)C3(F)CCN(C(=O)C#CC(C)(C)N(C)C)CC3)C(=O)N3CCCC(N3)C(=O)OCC(C)(C)C2)C1	94.2
C=CC(=O)N1CCN(c2nc(OCC3CCCN3C)nc3c(F)c(-c4nc(N)cc(C)c4C(F)(F)F)c(Cl)cc23)C(C)C1 (centres undefined) + CCn1c(-c2cccnc2C(C)OC)c2c3cc(ccc31)N1CCOC(CC(NC(=O)C(C(C)C)N(C)C(=O)C3(F)CCN(C(=O)C#CC(C)(C)N(C)C)CC3)C(=O)N3CCCC(N3)C(=O)OCC(C)(C)C2)C1	117

====

- Tested on: 362531-283-R-J2-PDC complex spheroid viability
- test: Anticancer human tumor 362531-283-R-J2-PDC cell line growth inhibition [RAS];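 further: spheroids exposed to the agents for 7 days before readout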
- condition notes: curve of first compound; second compound 0.316 µM
pIC50: −log10 of the molar value.
measured parameter: pIC50

compound	censoring operator	experimental value
CC(Nc1ccc2c(c1)OCCn1cc(N3C(=O)OCC3C(F)F)nc1-2)C(N)=O (stereo not given) + C=CC(=O)N1CCN(c2nc(OCC3CCCN3C)nc3c(F)c(-c4nc(N)cc(C)c4C(F)(F)F)c(Cl)cc23)C(C)C1	=	6.08
CC1(O)CCCC1n1c(=O)c(C(F)F)cc2cnc(NC3CCN(S(C)(=O)=O)CC3)nc21 (stereo not given) + C=CC(=O)N1CCN(c2nc(OCC3CCCN3C)nc3c(F)c(-c4nc(N)cc(C)c4C(F)(F)F)c(Cl)cc23)C(C)C1	<	5.00
CC(C)n1nc(-c2ccc3oc(N)nc3c2)c2c(N)ncnc21 + C=CC(=O)N1CCN(c2nc(OCC3CCCN3C)nc3c(F)c(-c4nc(N)cc(C)c4C(F)(F)F)c(Cl)cc23)C(C)C1	<	7.00
CCN1CCN(Cc2ccc(Nc3ncc(F)c(-c4cc(F)c5nc(C)n(C(C)C)c5c4)n3)nc2)CC1 + C#Cc1c(F)ccc2cc(O)cc(-c3ncc4c(N5CC6CCC(C5)N6)nc(OCC56CCCN5CC(F)C6)nc4c3F)c12	=	6.73
CC(Nc1ccc2c(c1)OCCn1cc(N3C(=O)OCC3C(F)F)nc1-2)C(N)=O (stereo not given) + C#Cc1c(F)ccc2cc(O)cc(-c3ncc4c(N5CC6CCC(C5)N6)nc(OCC56CCCN5CC(F)C6)nc4c3F)c12	=	6.07

====

- System: 362531-283-R-J2-PDC complex spheroid viability
- test: Anticancer human tumor 362531-283-R-J2-PDC cell line growth inhibition [RAS];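 further: spheroids exposed to the agents for 7 days before readout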
- condition notes: curve of first compound; second compound 10 µM
Listed below: IC50 values for each entry.

compound	IC50
C=CC(=O)N1CCN(c2nc(OCC3CCCN3C)nc3c(F)c(-c4nc(N)cc(C)c4C(F)(F)F)c(Cl)cc23)C(C)C1 (configuration not stated) + C#Cc1c(F)ccc2cc(O)cc(-c3ncc4c(N5CC6CCC(C5)N6)nc(OCC56CCCN5CC(F)C6)nc4c3F)c12	< 3.16 nM
CCN1CCN(Cc2ccc(Nc3ncc(F)c(-c4cc(F)c5nc(C)n(C(C)C)c5c4)n3)nc2)CC1 + C#Cc1c(F)ccc2cc(O)cc(-c3ncc4c(N5CC6CCC(C5)N6)nc(OCC56CCCN5CC(F)C6)nc4c3F)c12	< 3.16 nM

====

- Test system: 362531-283-R-J2-PDC complex spheroid viability
- test: Anticancer human tumor 362531-283-R-J2-PDC cell line growth inhibition [RAS];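 further: spheroids exposed to the agents for 7 days before readout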
- condition notes: curve of first compound; second compound 0.003 µM
- Description: RAS pathway inhibitors in Combinations in Complex Spheroids A high-throughput screen of multi-cell type tumor spheroids was designed to identify active combinations of RAS pathway inhibitors and targeted small molecules. Complex spheroids include a stromal component modeled by human endothelial cells (HUVEC) and fibroblasts modeled by human mesenchymal stem cells (MSCs). […] Compounds. […] If the clinical Cmax for an agent had not been determined, the highest concentration tested was 10 microM. […]
pIC50: −log10 of the molar value.
// label = satisfied if pIC50 is not less than 6, otherwise not satisfied

molecule	label
C=CC(=O)Nc1cc(Nc2nccc(-c3cn(C)c4ccccc34)n2)c(OC)cc1N(C)CCN(C)C + CCn1c(-c2cc(N3CCN(C)CC3)cnc2C(C)OC)c2c3cc(ccc31)-c1csc(n1)CC(NC(=O)C1CC1C)C(=O)N1CCCC(N1)C(=O)OCC(C)(C)C2	not satisfied
CC(=O)OC12COC1CC(O)C1(C)C(=O)C(O)C3=C(C)C(OC(=O)C(O)C(NC(=O)OC(C)(C)C)c4ccccc4)CC(O)(C(OC(=O)c4ccccc4)C21)C3(C)C (stereo not drawn) + CCn1c(-c2cc(N3CCN(C)CC3)cnc2C(C)OC)c2c3cc(ccc31)-c1csc(n1)CC(NC(=O)C1CC1C)C(=O)N1CCCC(N1)C(=O)OCC(C)(C)C2	satisfied
CCC(CC)c1cc(NC2CCC(N)C2)n2nccc2n1 (stereo not drawn) + CCn1c(-c2cccnc2C(C)OC)c2c3cc(ccc31)N1CCOC(CC(NC(=O)C(C(C)C)N(C)C(=O)C3(F)CCN(C(=O)C#CC(C)(C)N(C)C)CC3)C(=O)N3CCCC(N3)C(=O)OCC(C)(C)C2)C1	not satisfied
Cc1nc(N2CCC3(CC2)COC(C)C3N)c(CO)nc1Sc1ccnc(N)c1Cl (stereo not drawn) + CCn1c(-c2cccnc2C(C)OC)c2c3cc(ccc31)N1CCOC(CC(NC(=O)C(C(C)C)N(C)C(=O)C3(F)CCN(C(=O)C#CC(C)(C)N(C)C)CC3)C(=O)N3CCCC(N3)C(=O)OCC(C)(C)C2)C1	not satisfied
O=C(c1ccc(F)c(F)c1Nc1ccc(I)cc1F)N1CC(O)([C@@H]2CCCCN2)C1 + CCn1c(-c2cccnc2C(C)OC)c2c3cc(ccc31)N1CCOC(CC(NC(=O)C(C(C)C)N(C)C(=O)C3(F)CCN(C(=O)C#CC(C)(C)N(C)C)CC3)C(=O)N3CCCC(N3)C(=O)OCC(C)(C)C2)C1	satisfied
CC(C)n1nc(-c2ccc3oc(N)nc3c2)c2c(N)ncnc21 + CCn1c(-c2cccnc2C(C)OC)c2c3cc(ccc31)N1CCOC(CC(NC(=O)C(C(C)C)N(C)C(=O)C3(F)CCN(C(=O)C#CC(C)(C)N(C)C)CC3)C(=O)N3CCCC(N3)C(=O)OCC(C)(C)C2)C1	satisfied
CC(C)n1nc(-c2ccc3oc(N)nc3c2)c2c(N)ncnc21 + CCn1c(-c2cc(N3CCN(C)CC3)cnc2C(C)OC)c2c3cc(ccc31)-c1csc(n1)CC(NC(=O)C1CC1C)C(=O)N1CCCC(N1)C(=O)OCC(C)(C)C2	satisfied

====

Examples of compounds with documented viability, T/C follow.
- System: 362531-283-R-J2-PDC complex spheroid viability
- test: Anticancer human tumor 362531-283-R-J2-PDC cell line growth inhibition [RAS];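 further: spheroids exposed to the agents for 7 days before readout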;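 on viability, T/C: luminescence viability as percent of DMSO vehicle control wells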
- condition notes: second compound 1 µM; first compound 0.0316 µM; stronger effect = lower value

compound	tested on	viability, T/C (%)
CC(Nc1ccc2c(c1)OCCn1cc(N3C(=O)OCC3C(F)F)nc1-2)C(N)=O (centres undefined) + C#Cc1c(F)ccc2cc(O)cc(-c3ncc4c(N5CC6CCC(C5)N6)nc(OCC56CCCN5CC(F)C6)nc4c3F)c12	362531-283-R-J2-PDC complex spheroid viability	80.5
C[C@@H](NC(=O)c1ncnc(N)c1Cl)c1ncc(C(=O)Nc2cc(C(F)(F)F)c(Cl)cn2)s1 + C#Cc1c(F)ccc2cc(O)cc(-c3ncc4c(N5CC6CCC(C5)N6)nc(OCC56CCCN5CC(F)C6)nc4c3F)c12	362531-283-R-J2-PDC complex spheroid viability	94.3
Cc1nc(N2CCC3(CC2)COC(C)C3N)c(CO)nc1Sc1ccnc(N)c1Cl (centres undefined) + C=CC(=O)N1CCN(c2nc(OCC3CCCN3C)nc3c(F)c(-c4nc(N)cc(C)c4C(F)(F)F)c(Cl)cc23)C(C)C1	362531-283-R-J2-PDC complex spheroid viability	108
CC(C)NCC(C(=O)N1CCN(c2ncnc3c2C(C)CC3O)CC1)c1ccc(Cl)cc1 (centres undefined) + C=CC(=O)N1CCN(c2nc(OCC3CCCN3C)nc3c(F)c(-c4nc(N)cc(C)c4C(F)(F)F)c(Cl)cc23)C(C)C1	362531-283-R-J2-PDC complex spheroid viability	98.6

src = PubChem BioAssay AID2060909
